- test-name: in vitro
- measurement-setup: hamster, Pre-treatment CC50
Field: CC50. Provide a value for each of the compounds that follow.
Give bare numbers, in µM.

compound="CCN(CC)CCOc1ccc(C(=C(Cl)c2ccccc2)c2ccccc2)cc1 [Clomiphene (citrate)]" measure_name=CC50 result=24.9

Now consider a different compound.
IN: Form field: reported CC50 of Cc1ccc(Sc2ccccc2N2CCNCC2)c(C)c1
OUT: 28.5

====

- Tested on: SARS-CoV-2 BetaCoV/Shenzhen/SZTH-003/2020 strain
- test-name: microbe, parasite or virus in culture
- Assay type: cell-based
measure-name: pIC50
Give bare numbers, as −log10 of the molar value.

IN: Form field: reported pIC50 of Br.Cc1ccc(Sc2ccccc2N2CCNCC2)c(C)c1 [Vortioxetine (hydrobromide)]
OUT: 4.55

====

Field: CC50. Provide a value for each of the molecules that follow.
- test-name: in vitro
- measurement-setup: hamster, Co-treatment CC50
Numbers only, in µM.

molecule=Cc1ccc(Sc2ccccc2N2CCNCC2)c(C)c1 result=27.1

IN: Form field: reported CC50 of CCN(CC)CCOc1ccc(C(=C(Cl)c2ccccc2)c2ccccc2)cc1 [Clomiphene (citrate)]
OUT: 54.4

====

- System: VSV-SARS-CoV-2-Sdel18 pseudovirus
- test-name: microbe, parasite or virus in culture
- Type: cell-based
- measurement-setup: read-out: IC50
Field: pIC50. Provide a value for each of the molecules that follow.
Answers are plain numbers, as −log10 of the molar value.

# count of solved cases: 3
molecule="CN1CCc2c(c3ccccc3n2Cc2ccccc2)C1 [Mebhydrolin (napadisylate)]" experimental_system="VSV-SARS-CoV-2-Sdel18 pseudovirus" result=4.92
molecule="CN1CCN(CCCN2c3ccccc3Sc3ccc(C(F)(F)F)cc32)CC1.Cl.Cl [Trifluoperazine (dihydrochloride)]" experimental_system="VSV-SARS-CoV-2-Sdel18 pseudovirus" result=5.26
molecule="CN(C)CCOc1ccc(/C(=C(/CCCl)c2ccccc2)c2ccccc2)cc1 [Toremifene (Citrate)]" experimental_system="VSV-SARS-CoV-2-Sdel18 pseudovirus" result=5.26

Now consider a different molecule.
IN: Form field: reported pIC50 of Br.Cc1ccc(Sc2ccccc2N2CCNCC2)c(C)c1 [Vortioxetine (hydrobromide)]
OUT: 5.16
